- method-description: RP, Waters ACQUITY UPLC HSS T3, 100 × 2.1 mm, 1.8 µm, 30 °C, 0.3 mL/min, estimated dead time 0.73 min; A: water + 0.1% formic acid, pH 3; B: methanol + 0.1% formic acid, pH 3; gradient (min/%B) 0/0 6/0 56/100 60/100
- experimental-setup: stereoisomer not certain
Quick reference: LC retention time of the listed items.
Write the value in min as a bare number.

# annotated cases, reported LC retention time shown
CCCCCCCCCCCCCCCCCCCCCC(=O)O    58.7
CCCCCCCCN    27.6

Pending compound:
Give LC retention time for `COc1ccc(-c2coc3cc(OC)cc(O)c3c2=O)cc1`
44.8

----------
- method-description: RP, Waters ACQUITY UPLC HSS T3, 100 × 2.1 mm, 1.8 µm, 30 °C, 0.3 mL/min, estimated dead time 0.73 min; A: water + 0.1% formic acid, pH 3; B: methanol + 0.1% formic acid, pH 3; gradient (min/%B) 0/0 6/0 56/100 60/100
- experimental-setup: stereoisomer not certain
LC retention time values for the compounds below.
The response must be a number in min with no trailing unit.

Consider the worked cases shown below.
CCCCCCCC(=O)OC [methyl caprylate]    44.2
O=C(O)Cc1c[nH]c2ccccc12    26.6
O=C(O)C(O)CO (stereo not drawn)    1.45
OC1COC(O)C(O)C1O (stereo not drawn)    1.4
NCCCN    1

Look up and state reported LC retention time for `N[C@@H](CCO)C(=O)O`
1.29

Hello, please tell me recorded LC retention time for this one: CC(=O)OCC1OC(Oc2c(-c3ccc(O)c(O)c3)oc3cc(O)cc(O)c3c2=O)C(O)C(O)C1O (stereo not drawn) [quercetin-3-O-glucose-6''-acetate]
31

Look up LC retention time of `O=C(O)c1ccc2c(c1)OCO2` and report it.
26.7

----------
Quick reference: LC retention time of the listed items.
- method-description: RP, Waters ACQUITY UPLC HSS T3, 100 × 2.1 mm, 1.8 µm, 30 °C, 0.3 mL/min, estimated dead time 0.73 min; A: water + 0.1% formic acid, pH 3; B: methanol + 0.1% formic acid, pH 3; gradient (min/%B) 0/0 6/0 56/100 60/100
- experimental-setup: stereoisomer not certain

COc1cc(C=O)ccc1O    21.5 min
CCOC(=O)c1cc(O)c(O)c(O)c1 [ethyl gallate]    23 min

Respond only with LC retention time recorded for `NCCc1c[nH]c2ccc(O)cc12`
11.1 min

----------
- method-description: RP, Waters ACQUITY UPLC HSS T3, 100 × 2.1 mm, 1.8 µm, 30 °C, 0.3 mL/min, estimated dead time 0.73 min; A: water + 0.1% formic acid, pH 3; B: methanol + 0.1% formic acid, pH 3; gradient (min/%B) 0/0 6/0 56/100 60/100
- experimental-setup: stereoisomer not certain
Where a name gives a salt, the structure may show the parent alone.
metric: log10 LC retention time (log10 of the value in min)
Could you please treat all values as log10 of LC retention time in min?

Field: example entries. Status: answers known.
COc1ccc(-c2cc(=O)c3c(OC)c(OC)c(OC)cc3o2)cc1O    1.57
Cc1cc2nc3c(=O)[nH]c(=O)nc-3n(CC(O)C(O)C(O)COP(=O)(O)OP(=O)(O)OCC3OC(n4cnc5c(N)ncnc54)C(O)C3O)c2cc1C (stereo unspecified)    1.32
O=C(OC1Cc2c(O)cc(O)cc2OC1c1cc(O)c(O)c(O)c1)c1cc(O)c(O)c(O)c1 (stereo unspecified) [epigallo-catechin gallate]    1.35
CC1OC(OC2C(Oc3cc(O)c4c(c3)OC(c3ccc(O)cc3)CC4=O)OC(CO)C(O)C2O)C(O)C(O)C1O (stereo unspecified)    1.46
O=C1CC(c2ccc(O)c(O)c2)Oc2cc(O)cc(O)c21 (stereo unspecified)    1.49

Please look at the following molecule next.
State its log10 LC retention time: C1CCNCC1 [piperidine hydrochloride]
0.40
